# experimental_system: TetR (TetR(B), tetracycline repressor) (Escherichia coli, UniProt P04483)
# Sequence (P04483 whole entry, looked up): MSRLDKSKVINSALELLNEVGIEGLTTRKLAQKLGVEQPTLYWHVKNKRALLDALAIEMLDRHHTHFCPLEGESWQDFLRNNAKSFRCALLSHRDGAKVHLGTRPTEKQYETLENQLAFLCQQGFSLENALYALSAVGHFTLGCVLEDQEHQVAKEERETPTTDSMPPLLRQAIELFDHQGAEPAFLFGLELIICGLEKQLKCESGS
quantity_measured: pKd
// pKd here means minus log10 of the molar concentration (mol/L)

C=CCc1cccc(C=NNC(=O)CN2CCN(Cc3ccccc3)CC2)c1O has a reported pKd of 3.59
